# key: entry, value: Population Fragmented Nuclei (%)
- Test system: HEK-293T
- experiment description: Multiplex assay against HEK293T
- Type: toxicity, cell-based
- test parameters: human, 24 h, 10 µM, compound concentration 10 uM, replicate 2

compound=c1ccc2oc(-c3csc(C4CCN(Cc5nc6ncccc6[nH]5)CC4)n3)cc2c1 measured_on=HEK-293T observed_value=11%
compound=COc1cc2c(Nc3ccc(NC(=O)c4ccccc4)cc3)ncnc2cc1OCCCN1CCOCC1 measured_on=HEK-293T observed_value=14%

From here, focus on the item given below.
Param item = Cc1nc(Cc2cccc(C(F)(F)F)c2)sc1-c1ccc(C(N)=O)nc1 [TP-024n] ; retrieve measured Population Fragmented Nuclei (%).
10%

* * *

# key: entry, value: Growth Rate
- Tested on: U2OS
- experiment description: Incucyte cell viability with U2OS; note: filed as whole numbers so only -1 and 0 and 1 occur
- Assay type: toxicity, cell-based
- test parameters: human, 24 h, 10 µM, compound concentration 10 uM, replicate number 1, timepoint 24 hours
Answer field: number only, no words.

Examples with answers:
compound=CCCCc1nc2ccc(NC(=O)NC3CCCCC3)cc2n1Cc1ccc(-c2ccccc2C(=O)O)cc1 observation_type="Growth Rate" observed_value=0
compound=CCOc1cc(N2CCC(O)CC2)ccc1Nc1ncc2c(n1)N(C1CCCC1)CCC(=O)N2C observation_type="Growth Rate" observed_value=0
compound=CNC(=O)c1cc(Oc2ccc(NC(=O)Nc3cc(C(C)(C)C)nn3-c3ccc4ncccc4c3)c(F)c2)ccn1 observation_type="Growth Rate" observed_value=0
compound=Cc1cc(C)cc(C(=O)N(C)[C@H](Cc2ccc(-c3ccccc3)cc2)C(=O)N[C@@H](Cc2c[nH]c3ccccc23)C(=O)O)c1 observation_type="Growth Rate" observed_value=0
compound=Cc1cc(NC(=O)Nc2ccc(N(C)C)cc2)c2cc(F)cc(F)c2n1 observation_type="Growth Rate" observed_value=0
compound=CCCc1cc(C)[nH]c(=O)c1CNC(=O)c1cc(-c2ccnc(N3CCN(C)CC3)c2)cc2c1cnn2C(C)C observation_type="Growth Rate" observed_value=0
compound=CC(C)CC(=O)N1CCc2nc(-c3ccc(Br)cc3)nc(N(C)Cc3ccccc3)c2C1 observation_type="Growth Rate" observed_value=0
compound="C[C@@H](NCCc1ccc(O)cc1)[C@@H](O)c1ccc(O)cc1.Cl (relative stereo)" observation_type="Growth Rate" observed_value=1
compound=CS(=O)(=O)c1cc(C2(NC(=O)c3cncc4c3cnn4-c3ccc(F)cc3)CC2)ccn1 observation_type="Growth Rate" observed_value=1
compound=FC(F)(F)c1c(N2CCC(c3ccccc3)CC2)ccn2c(CC3CC3)nnc12 observation_type="Growth Rate" observed_value=0

From here, focus on the item given below.
Param item = C1=N/C2=N/c3ccc(OCCN4CCCC4)c(c3)COC/C=C\COCc3cccc(c3)C(=C1)N2 ; retrieve measured Growth Rate.
0

* * *

- Test system: HEK-293T
- experiment description: Multiplex assay against HEK293T
- Type: toxicity, cell-based
- test parameters: human, 24 h, 10 µM, compound concentration 10 uM, replicate 2
observation type: Population Normal (%)
State just the number; it will be interpreted in %.

Examples with answers:
compound=O=C(O)c1ccc2cc(-c3ccc(O)c(C45CC6CC(CC(C6)C4)C5)c3)ccc2c1 observed_value=88
compound=Nc1ccc(C(=O)Nc2cccc(-c3nc(N4CCOCC4)c4oc5ncccc5c4n3)c2)cn1 observed_value=91
compound=CCCn1c(=O)c2[nH]c(C34CC5CC(CC3C5)C4)nc2n(CCC)c1=O observed_value=92
compound="Cc1nc(Cc2cccc(C(F)(F)F)c2)sc1-c1ccc(C(N)=O)nc1 [TP-024n]" observed_value=89

From here, focus on the item given below.
Param item = CN(C)C/C=C/C(=O)Nc1cc2c(Nc3ccc(F)c(Cl)c3)ncnc2cc1O[C@H]1CCOC1.O=C(O)/C=C\C(=O)O.O=C(O)/C=C\C(=O)O [AFATINIB DIMALEATE] ; retrieve measured Population Normal (%).
90
